Molecular target: recombinant human Myt1 (Homo sapiens (Human))
Assay: Myt1 enzymatic assay (ADP-Glo kinase assay)
Conditions: recombinant human Myt1 18 nM, ATP 10 μM
Overview of recorded log10(IC50) for various compounds
measured-metric: log10(IC50) (log10 of the value in nM)

>>> print(df.to_string())
                                chem_smiles                         target_under_test  result
0  Cc1ccc(O)c(C)c1-c1cc(-c2ccn(C3CC3)n2)c2nc(-c3ccncc3)[nH]c(=O)c2c1N  recombinant human Myt1 (Homo sapiens (Human))    0.48
1  CN1CCN(c2ccc(-c3nc4c(Br)cc(-c5cccc6[nH]ncc56)c(N)c4c(=O)[nH]3)cn2)CC1  recombinant human Myt1 (Homo sapiens (Human))    1.00
2  Nc1c(-c2cccc3[nH]ncc23)cc(-c2cccc(OCCN3CCOCC3)n2)c2nc(-c3ccncc3)[nH]c(=O)c12  recombinant human Myt1 (Homo sapiens (Human))    0.30
3  COCCOc1ccc(-c2nc3c(Br)cc(-c4cccc5[nH]ncc45)c(N)c3c(=O)[nH]2)cn1  recombinant human Myt1 (Homo sapiens (Human))    0.90
4  Nc1c(-c2cccc3[nH]ncc23)cc(-c2cccc(OCCN3CCOCC3)c2)c2nc(-c3ccncc3)[nH]c(=O)c12  recombinant human Myt1 (Homo sapiens (Human))    0.70
5  Cc1ccc(O)c(C)c1-c1cc(-c2nccs2)c2c(c1N)C(=O)NC2  recombinant human Myt1 (Homo sapiens (Human))    0.85
6  Nc1c(-c2cccc3[nH]ncc23)cc(-c2nccs2)c2nc(C3CC3)[nH]c(=O)c12  recombinant human Myt1 (Homo sapiens (Human))    2.12

----------
Molecular target: recombinant human Myt1 (Homo sapiens (Human), UniProt Q99640)
Sequence (Q99640 whole entry): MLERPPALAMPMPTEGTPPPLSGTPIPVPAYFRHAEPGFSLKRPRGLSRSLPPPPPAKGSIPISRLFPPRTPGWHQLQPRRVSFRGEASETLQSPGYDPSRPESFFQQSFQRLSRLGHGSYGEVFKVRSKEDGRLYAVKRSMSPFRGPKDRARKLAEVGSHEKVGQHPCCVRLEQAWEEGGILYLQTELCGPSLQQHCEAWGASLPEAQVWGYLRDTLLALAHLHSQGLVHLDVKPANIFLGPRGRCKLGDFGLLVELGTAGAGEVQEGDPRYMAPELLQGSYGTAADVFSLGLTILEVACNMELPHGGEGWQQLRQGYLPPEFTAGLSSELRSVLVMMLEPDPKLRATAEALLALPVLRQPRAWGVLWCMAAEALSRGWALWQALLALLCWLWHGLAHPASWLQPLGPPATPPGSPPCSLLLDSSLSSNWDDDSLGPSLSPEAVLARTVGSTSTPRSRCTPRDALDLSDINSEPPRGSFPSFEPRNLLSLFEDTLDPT
Experiment: Myt1 enzymatic assay (ADP-Glo kinase assay)
Conditions: recombinant human Myt1 18 nM, ATP 10 μM
Method: Detection of Myt1 kinase activity utilized a recombinant human Myt1 kinase assay measuring the hydrolysis of ATP using a commercially available ADP-Glo Assay (ADP-Glo™ Kinase Assay from Promega, 10 000 assays, #V9102). […] Luminescence was read using the Envision (250 ms integration). The IC50 and the % max inhibition were calculated for each inhibitor compound tested.
measured-metric: IC50 (µM)

>>> df
                                   compound  result
0  Cc1ccc(O)cc1-c1cc(-c2nc(C(=O)NC(C)C)cs2)c2c(c1N)C(=O)NC2   0.055
1  Cc1ccc(O)c(C)c1-c1cc(-c2ccc(F)cn2)c2c(c1N)C(=O)NC2   0.111
2  Nc1c(-c2cccc3[nH]ncc23)cc(-c2nccs2)c2nc(-c3cccc(N4CCOCC4)c3)[nH]c(=O)c12   0.009
3  Cc1ccc(-c2cc(-c3cccc4[nH]ncc34)c(N)c3c(=O)[nH]cnc23)s1   0.062
4  Nc1c(-c2cccc3[nH]ncc23)cc(-c2cnn(C3COC3)c2)c2nc(-c3cccnc3)[nH]c(=O)c12   0.005
5  Nc1c(-c2cccc3[nH]ncc23)cc(Br)c2nc(-c3ccc(N4CCOCC4)nc3)[nH]c(=O)c12 [Compound 25, 2,2,2-trifluoroacetate]   0.023
6  Nc1c(-c2cccc3[nH]ncc23)cc(-c2ccc(Cl)s2)c2nc[nH]c(=O)c12   0.089

----------
Biological target: recombinant human Myt1 (Homo sapiens (Human), UniProt Q99640)
Assay: Myt1 enzymatic assay (ADP-Glo kinase assay)
Format: biochemical
Conditions: recombinant human Myt1 18 nM, ATP 10 μM
TRUE if IC50 is below 20 nM. FALSE if not; exact matches included in FALSE.

In [3]: df
Out[3]:
                                 chem_smiles  assigned_class
 0  Nc1c(-c2cccc3[nH]ncc23)cc(-c2ncccn2)c2nc[nH]c(=O)c12           FALSE
 1  Nc1c(-c2cccc3[nH]ncc23)cc(Br)c2nc(-c3ccc(NC4COC4)nc3)[nH]c(=O)c12           FALSE
 2  Nc1c(-c2cccc3[nH]ncc23)cc(-c2nccs2)c2nc(-c3ccnc(N4CCNCC4)c3)[nH]c(=O)c12            TRUE
 3  Cc1nc2c(-c3nccs3)cc(-c3cccc4[nH]ncc34)c(N)c2c(=O)[nH]1           FALSE
 4  Nc1c(-c2cccc3[nH]ncc23)cc(-c2cnn(C(F)F)c2)c2nc(-c3ccncc3)[nH]c(=O)c12            TRUE
 5  Nc1c(-c2cccc3[nH]ncc23)cc(Br)c2nc(-c3ccc(N4CCN(C5CC5)C(=O)C4)nc3)[nH]c(=O)c12            TRUE
 6  Cc1ccc(O)cc1-c1cc(-c2nc(C(=O)O)cs2)c2c(c1N)C(=O)NC2           FALSE
 7  Cc1ccc2[nH]ncc2c1-c1cc(-c2cccc(OCc3nccn3C)n2)c2nc[nH]c(=O)c2c1N            TRUE
 8  Cc1ccc(O)cc1-c1cc(-c2nccs2)c2c(c1N)C(=O)NC2           FALSE
 9  Nc1c(-c2cccc3[nH]ncc23)cc(Br)c2nc(-c3ccc(NCCN4CCCC4)nc3)[nH]c(=O)c12            TRUE
10  Nc1c(-c2cccc3[nH]ncc23)cc(-c2nccs2)c2nc(-c3cccnn3)[nH]c(=O)c12            TRUE
11  Nc1c(-c2cccc3[nH]ncc23)cc(Br)c2nc(-c3ccc(N4CCN(C5CC5)CC4)nc3)[nH]c(=O)c12            TRUE
12     Cc1ccc(O)cc1-c1cc(Br)c2c(c1N)C(=O)NC2           FALSE
13  Cc1ccc(O)cc1-c1cc(-c2nc(C(=O)NCCO)cs2)c2c(c1N)C(=O)NC2           FALSE
14  Cc1ccc(O)cc1-c1cc(-c2nc(C(=O)N(C)C)cs2)c2c(c1N)C(=O)NC2           FALSE
15  Nc1c(-c2cccc3[nH]ncc23)cc(-n2cc3c(n2)CCC3)c2nc(-c3ccncc3)[nH]c(=O)c12            TRUE

----------
Molecular target: recombinant human Myt1 (Homo sapiens (Human), UniProt Q99640)
Test: Myt1 enzymatic assay (ADP-Glo kinase assay)
Details: recombinant human Myt1 18 nM, ATP 10 μM
measured-metric: IC50 (nM)

                                   molecule  result
0  Nc1c(-c2cccc3[nH]ncc23)cc(-c2cccc(=O)[nH]2)c2nc(-c3cccnc3)[nH]c(=O)c12 [Compound 80]       6
1  Nc1c(-c2cccc3[nH]ncc23)cc(-n2cccn2)c2nc(-c3cccnc3)[nH]c(=O)c12 [Compound 79]       3
2  Nc1c(-c2cccc3[nH]ncc23)cc(-c2ccc(C(F)(F)F)cc2)c2nc[nH]c(=O)c12 [Compound 125]     839
3  Nc1c(-c2cccc3[nH]ncc23)cc(-c2nccs2)c2nc(-c3ccnc(N4CCOCC4)c3)[nH]c(=O)c12 [Compound 15]      10

----------
Target: recombinant human Myt1 (Homo sapiens (Human))
Experiment: Myt1 enzymatic assay (ADP-Glo kinase assay)
Settings: recombinant human Myt1 18 nM, ATP 10 μM
Overview of recorded IC50 for various compounds
measured-metric: IC50 (nM)

>>> df
                                chem_smiles                         target_under_test  measured_metric  result
0  Nc1ccc(-c2nc3c(-c4nccs4)cc(-c4cccc5[nH]ncc45)c(N)c3c(=O)[nH]2)cc1  recombinant human Myt1 (Homo sapiens (Human))             IC50      54
1  Nc1c(-c2cccc3[nH]ncc23)cc(-c2nccs2)c2nc(-c3ccccc3)[nH]c(=O)c12  recombinant human Myt1 (Homo sapiens (Human))             IC50       4
2  N#Cc1csc(-c2cc(-c3cccc4[nH]ncc34)c(N)c3c(=O)[nH]cnc23)n1  recombinant human Myt1 (Homo sapiens (Human))             IC50       3
3  Cc1ccc2[nH]ncc2c1-c1cc(-c2nccs2)c2c(c1N)C(=O)NC2  recombinant human Myt1 (Homo sapiens (Human))             IC50      16
4  Cc1ccc2[nH]ncc2c1-c1cc(-c2cccc(OCCN3CCOCC3)n2)c2nc[nH]c(=O)c2c1N  recombinant human Myt1 (Homo sapiens (Human))             IC50       5
5  Cc1ccc(O)cc1-c1cc(-c2ncc(NC(=O)C3CC3)s2)c2c(c1N)C(=O)NC2  recombinant human Myt1 (Homo sapiens (Human))             IC50    2240
6  Cc1ccc(O)cc1-c1cc(-c2nc(NC(=O)C3CCOCC3)cs2)c2c(c1N)C(=O)NC2  recombinant human Myt1 (Homo sapiens (Human))             IC50     930
7  Cc1ccc2[nH]ncc2c1-c1cc(Br)c2nc[nH]c(=O)c2c1N  recombinant human Myt1 (Homo sapiens (Human))             IC50      26

Measured values drawn from patent US20230348456A1 for this set.
